Numbers sourced from ChEMBL document CHEMBL1141727.

Test system: BT-549
Test: Growth inhibition of human BT549 cells
Format: functional
Would you mind telling me the reported GI50 of each entry?

Solved cases (4 shown):
- molecule: "C=C1CCC[C@H]2[C@](C)(CCC(C)=O)[C@@H](C)CC[C@]12C"
  value_measured: "> 15 µM"
- molecule: "CC1=C(CC/C(C)=C/CC[C@@]2(C)CC[C@H]([C@H](C)C(=O)O)OO2)C(C)(C)CCC1"
  value_measured: "> 5 µM"
- molecule: "CC(=O)CC/C=C(\\C)CCC1=C(C)CCCC1(C)C"
  value_measured: "> 15 µM"
- molecule: "COC(=O)[C@H](C)[C@H]1CC[C@@](C)(CCC2=C(C)CCCC2(C)C)OO1"
  value_measured: "> 5 µM"

Kindly review the next molecule as well.
So what's the measured GI50 for this one? C=C1CCCC(C)(C)C1CC[C@]1(C)CC[C@@H]([C@@H](C)C(=O)O)OO1 (stereo not given in full) [EPINUAPAPUIN B]
> 10 µM

---

Test system: OVCAR-4
Assay: Growth inhibition of human OVCAR4 cells
Assay type: functional
Would you mind telling me the reported GI50 of each entry?

Solved cases (5 shown):
- compound: "C=C1CCC[C@H]2[C@](C)(CCC(C)=O)[C@@H](C)CC[C@]12C"
  value_measured: "> 15 µM"
- compound: "C=C1CCCC(C)(C)C1(O)CC/C(C)=C/CC[C@]1(C)CC[C@@H]([C@@H](C)C(=O)OC)OO1 (stereo partly specified) [MUQUBILIN B]"
  value_measured: "> 17.5 µM"
- compound: "CC1=C(CC/C(C)=C/CC[C@@]2(C)CC[C@H]([C@H](C)C(=O)O)OO2)C(C)(C)CCC1"
  value_measured: "> 5 µM"
- compound: "COC(=O)[C@H](C)[C@H]1CC[C@@](C)(CCC2=C(C)CCCC2(C)C)OO1 [NUAPAPUIN A METHYL ESTER]"
  value_measured: "> 25 µM"
- compound: "C=C1CCCC(C)(C)C1CC[C@]1(C)CC[C@@H]([C@@H](C)C(=O)O)OO1 (stereo partly specified) [EPINUAPAPUIN B]"
  value_measured: "> 10 µM"

Kindly review the next compound as well.
So what's the measured GI50 for this one? CC(=O)CC/C=C(\C)CCC1=C(C)CCCC1(C)C
> 15 µM

---

Test system: MDA-N
Assay: Growth inhibition of human MDA-N cells
Assay type: functional
Would you mind telling me the reported GI50 of each entry?

Solved cases (3 shown):
- compound: "COC(=O)[C@H](C)[C@H]1CC[C@@](C)(CCC2=C(C)CCCC2(C)C)OO1"
  assayed_target: "MDA-N"
  value_measured: "> 25 µM"
- compound: "C=C1CCC[C@H]2[C@](C)(CCC(C)=O)[C@@H](C)CC[C@]12C"
  assayed_target: "MDA-N"
  value_measured: "> 15 µM"
- compound: "C=C1CCCC(C)(C)C1CC[C@]1(C)CC[C@@H]([C@@H](C)C(=O)O)OO1 (stereo not given in full) [EPINUAPAPUIN B]"
  assayed_target: "MDA-N"
  value_measured: "> 10 µM"

Give GI50 for each listed item.
1. CC1=C(CC/C(C)=C/CC[C@@]2(C)CC[C@H]([C@H](C)C(=O)O)OO2)C(C)(C)CCC1
2. CC(=O)CC/C=C(\C)CCC1=C(C)CCCC1(C)C

1: > 5 µM; 2: > 15 µM

---

System: SF-268
Experiment: Growth inhibition of human SF268 cells
Format: functional
Would you mind telling me the reported GI50 of each entry?

Solved cases (2 shown):
- molecule: "CC1=C(CC/C(C)=C/CC[C@@]2(C)CC[C@H]([C@H](C)C(=O)O)OO2)C(C)(C)CCC1"
  GI50: "> 5 µM"
- molecule: "COC(=O)[C@H](C)[C@H]1CC[C@@](C)(CCC2=C(C)CCCC2(C)C)OO1"
  GI50: "> 25 µM"

So what's the measured GI50 for this one? CC1=C(CC/C(C)=C/CC[C@@]2(C)CC[C@@H]([C@H](C)C(=O)O)OO2)C(C)(C)CCC1 [EPIMUQUBILIN A]
> 100 µM

---

Tested on: RXF 393
Experiment: Growth inhibition of human […] cells
Type: functional
measure: GI50

Give GI50 for each listed item.
1. C=C1CCCC(C)(C)C1(O)CC/C(C)=C/CC[C@]1(C)CC[C@@H]([C@@H](C)C(=O)OC)OO1 (stereo partly specified) [MUQUBILIN B]
2. CC(=O)CC/C=C(\C)CCC1=C(C)CCCC1(C)C
3. CC1=C(CC/C(C)=C/CC[C@@]2(C)CC[C@H]([C@H](C)C(=O)O)OO2)C(C)(C)CCC1

["> 17.5 µM", "> 15 µM", "> 5 µM"]

Give GI50 for each listed item.
1. COC(=O)[C@H](C)[C@H]1CC[C@@](C)(CCC2=C(C)CCCC2(C)C)OO1 [NUAPAPUIN A METHYL ESTER]
2. C=C1CCCC(C)(C)C1CC[C@]1(C)CC[C@@H]([C@@H](C)C(=O)O)OO1 (stereo partly specified) [EPINUAPAPUIN B]
3. C=C1CCC[C@H]2[C@](C)(CCC(C)=O)[C@@H](C)CC[C@]12C

["> 25 µM", "> 10 µM", "> 15 µM"]

---

Would you mind telling me the reported GI50 of each entry?
System: TK-10
Assay: Growth inhibition of human TK10 cells
Assay type: functional

Solved cases (2 shown):
- compound: "C=C1CCCC(C)(C)C1(O)CC/C(C)=C/CC[C@]1(C)CC[C@@H]([C@@H](C)C(=O)OC)OO1 (stereo partly drawn) [MUQUBILIN B]"
  value_measured: "> 17.5 µM"
- compound: "COC(=O)[C@H](C)[C@H]1CC[C@@](C)(CCC2=C(C)CCCC2(C)C)OO1 [NUAPAPUIN A METHYL ESTER]"
  value_measured: "> 25 µM"

So what's the measured GI50 for this one? CC1=C(CC/C(C)=C/CC[C@@]2(C)CC[C@H]([C@H](C)C(=O)O)OO2)C(C)(C)CCC1
> 5 µM

---

Tested on: CAKI-1
Test: Growth inhibition of human Caki1 cells
Format: functional
measure: GI50

Solved cases (5 shown):
- molecule: "C=C1CCCC(C)(C)C1CC[C@]1(C)CC[C@@H]([C@@H](C)C(=O)O)OO1 (stereo partly specified) [EPINUAPAPUIN B]"
  GI50: "> 10 µM"
- molecule: "C=C1CCC[C@H]2[C@](C)(CCC(C)=O)[C@@H](C)CC[C@]12C"
  GI50: "> 15 µM"
- molecule: "CC1=C(CC/C(C)=C/CC[C@@]2(C)CC[C@H]([C@H](C)C(=O)O)OO2)C(C)(C)CCC1"
  GI50: "> 5 µM"
- molecule: "CC(=O)CC/C=C(\\C)CCC1=C(C)CCCC1(C)C"
  GI50: "> 15 µM"
- molecule: "COC(=O)[C@H](C)[C@H]1CC[C@@](C)(CCC2=C(C)CCCC2(C)C)OO1"
  GI50: "> 25 µM"

Kindly review the next molecule as well.
So what's the measured GI50 for this one? C=C1CCCC(C)(C)C1(O)CC/C(C)=C/CC[C@]1(C)CC[C@@H]([C@@H](C)C(=O)OC)OO1 (stereo partly specified)
> 17.5 µM

---

Test system: HL-60(TB)
Test: Growth inhibition of human HL-60(TB) cells
Assay type: functional
measure: GI50

Give GI50 for each listed item.
1. COC(=O)[C@H](C)[C@H]1CC[C@@](C)(CCC2=C(C)CCCC2(C)C)OO1 [NUAPAPUIN A METHYL ESTER]
2. C=C1CCCC(C)(C)C1(O)CC/C(C)=C/CC[C@]1(C)CC[C@@H]([C@@H](C)C(=O)OC)OO1 (stereo partly drawn) [MUQUBILIN B]
3. C=C1CCC[C@H]2[C@](C)(CCC(C)=O)[C@@H](C)CC[C@]12C

1: > 5 µM; 2: > 17.5 µM; 3: > 15 µM

---

Tested on: SF-539
Assay: Growth inhibition of human SF539 cells
Type: functional
Would you mind telling me the reported GI50 of each entry?

Give GI50 for each listed item.
1. COC(=O)[C@H](C)[C@H]1CC[C@@](C)(CCC2=C(C)CCCC2(C)C)OO1
2. CC(=O)CC/C=C(\C)CCC1=C(C)CCCC1(C)C
3. CC1=C(CC/C(C)=C/CC[C@@]2(C)CC[C@H]([C@H](C)C(=O)O)OO2)C(C)(C)CCC1

> 25 µM
> 15 µM
> 5 µM

Give GI50 for each listed item.
1. C=C1CCC[C@H]2[C@](C)(CCC(C)=O)[C@@H](C)CC[C@]12C
2. C=C1CCCC(C)(C)C1(O)CC/C(C)=C/CC[C@]1(C)CC[C@@H]([C@@H](C)C(=O)OC)OO1 (stereo partly specified)
3. C=C1CCCC(C)(C)C1CC[C@]1(C)CC[C@@H]([C@@H](C)C(=O)O)OO1 (stereo partly specified) [EPINUAPAPUIN B]

> 15 µM
> 17.5 µM
> 10 µM
